Assay: in vivo
Conditions: male, dog, po
Recorded metric: MTD at 4 days (mg/kg)
Numbers only, in mg/kg.

Req: Given the molecule CCCN[C@@H]1CCc2nc(N)sc2C1 [(R)-pramipexole] , what is its reported MTD at 4 days?
Resp: 75

====

Assay: clinical
Conditions: human, plasma, po, 300 mg, AUC(inf) (mean ± SD), single 300 mg oral dose, fasted
Recorded metric: AUC(0-inf)

Req: Given the compound CCCN[C@@H]1CCc2nc(N)sc2C1 [(R)-pramipexole] , what is its reported AUC(0-inf)?
Resp: 8620 ng·h/mL

====

Assay: clinical
Details: human, plasma, po, 150 mg, AUC(0-t) (mean ± SD), single 150 mg oral dose, fed
Recorded metric: AUC(0-t) (ng·h/mL)
Give bare numbers, in ng·h/mL.

Req: Given the compound CCCN[C@@H]1CCc2nc(N)sc2C1 [(R)-pramipexole] , what is its reported AUC(0-t)?
Resp: 3100

====

Experiment: in vivo
Details: both, minipig
Recorded metric: NOAEL at 14 days

Req: Given the compound CCCN[C@@H]1CCc2nc(N)sc2C1 [(R)-pramipexole] , what is its reported NOAEL at 14 days?
Resp: 75 mg/kg

====

Test: clinical
Conditions: human, plasma, po, 300 mg, Vz/F (mean ± SD), single 300 mg oral dose, fasted
Recorded metric: Vd/F
Write down the value, and be sure its unit follows.

Req: Given the compound CCCN[C@@H]1CCc2nc(N)sc2C1 [(R)-pramipexole] , what is its reported Vd/F?
Resp: 346 L

====

Assay: clinical
Details: human, blood, po, 150 mg, AUC(inf) (mean ± SD), single 150 mg oral dose, fasted
Recorded metric: AUC(0-inf) (ng·h/mL)
Give bare numbers, in ng·h/mL.

Req: Given the molecule CCCN[C@@H]1CCc2nc(N)sc2C1 [(R)-pramipexole] , what is its reported AUC(0-inf)?
Resp: 3820

====

Experiment: in vivo
Settings: both, rat, in vivo
Recorded metric: NOAEL at 14 days

Req: Given the compound CCCN[C@@H]1CCc2nc(N)sc2C1 [(R)-pramipexole] , what is its reported NOAEL at 14 days?
Resp: 150 mg/kg

====

Assay: clinical
Conditions: human, plasma, oral, 50 mg, AUC(0-12) (mean ± SD), Day 7, 50 mg Q12H on Days 3 through 6 and a single dose on Day 7, fasted
Recorded metric: AUC(0-t) (ng·h/mL)
Answers are plain numbers, in ng·h/mL.

Req: Given the compound CCCN[C@@H]1CCc2nc(N)sc2C1 [(R)-pramipexole] , what is its reported AUC(0-t)?
Resp: 1450

====

Experiment: clinical
Details: human, plasma, po, 50 mg, AUC(inf) (mean ± SD), single 50 mg oral dose, fasted
Recorded metric: AUC(0-inf) (ng·h/mL)
Answers are plain numbers, in ng·h/mL.

Req: Given the compound CCCN[C@@H]1CCc2nc(N)sc2C1 [(R)-pramipexole] , what is its reported AUC(0-inf)?
Resp: 1250

====

Test: in vivo
Settings: male, dog, po
Recorded metric: NOAEL at 4 days
Write down the value, and be sure its unit follows.

Req: Given the compound CCCN[C@@H]1CCc2nc(N)sc2C1 [(R)-pramipexole] , what is its reported NOAEL at 4 days?
Resp: 25 mg/kg

====

Experiment: clinical
Conditions: human, plasma, po, 100 mg
Recorded metric: AUC(0-inf) (ng·h/mL)
Answers are plain numbers, in ng·h/mL.

Req: Given the compound CCCN[C@@H]1CCc2nc(N)sc2C1 [(R)-pramipexole] , what is its reported AUC(0-inf)?
Resp: 2570

====

Test: clinical
Settings: human, in vivo, oral, 150 mg, AUC(0-t) (mean ± SD), CL001, 150 mg SD, second 150 mg line, Food printed Fasted
Experimental: Safety observations included vital signs, physical examination, clinical laboratory tests, ECGs, and adverse event reporting. Blood and urine samples were collected pre-dose and for 72 hours post-dose to assess the pharmacokinetics.
Recorded metric: AUC(0-t) (µg·h/mL)
Numbers only, in µg·h/mL.

Req: Given the compound CCCN[C@@H]1CCc2nc(N)sc2C1 [(R)-pramipexole] , what is its reported AUC(0-t)?
Resp: 3.1

====

Assay: clinical
Conditions: human, plasma, oral, 100 mg, mean exposure AUC(0-12) at Day 7, 100 mg Q12H
Recorded metric: AUC(0-t) (ng·h/mL)
Give bare numbers, in ng·h/mL.

Req: Given the molecule CCCN[C@@H]1CCc2nc(N)sc2C1 [(R)-pramipexole] , what is its reported AUC(0-t)?
Resp: 2460

====

Assay: clinical
Details: human, plasma, po, 50 mg
Recorded metric: AUC(0-inf) (ng·h/mL)
Answers are plain numbers, in ng·h/mL.

Req: Given the molecule CCCN[C@@H]1CCc2nc(N)sc2C1 [(R)-pramipexole] , what is its reported AUC(0-inf)?
Resp: 1500

====

Assay: clinical
Settings: human, plasma, po, 100 mg
Recorded metric: Tmax
Write down the value, and be sure its unit follows.

Req: Given the compound CCCN[C@@H]1CCc2nc(N)sc2C1 [(R)-pramipexole] , what is its reported Tmax?
Resp: 1.92 h

====

Assay: clinical
Details: human, plasma, po, 150 mg, AUC(inf) (mean ± SD), single 150 mg oral dose, fasted
Recorded metric: AUC(0-inf) (ng·h/mL)
Numbers only, in ng·h/mL.

Req: Given the molecule CCCN[C@@H]1CCc2nc(N)sc2C1 [(R)-pramipexole] , what is its reported AUC(0-inf)?
Resp: 3820

====

Test: clinical
Conditions: human, in vivo, po, 300 mg, AUC(inf) (mean ± SD), single 300 mg oral dose, fasted
Recorded metric: AUC(0-inf)
Write down the value, and be sure its unit follows.

Req: Given the molecule CCCN[C@@H]1CCc2nc(N)sc2C1 [(R)-pramipexole] , what is its reported AUC(0-inf)?
Resp: 8620 ng·h/mL

====

Test: clinical
Conditions: human, blood, po, 300 mg, AUC(0-t) (mean ± SD), single 300 mg oral dose, fasted
Recorded metric: AUC(0-t)
Write down the value, and be sure its unit follows.

Req: Given the compound CCCN[C@@H]1CCc2nc(N)sc2C1 [(R)-pramipexole] , what is its reported AUC(0-t)?
Resp: 8340 ng·h/mL

====

Experiment: in vivo
Conditions: both, minipig
Recorded metric: NOAEL at 3 months (mg/kg)
Give bare numbers, in mg/kg.

Req: Given the compound CCCN[C@@H]1CCc2nc(N)sc2C1 [(R)-pramipexole] , what is its reported NOAEL at 3 months?
Resp: 50

====

Assay: clinical
Conditions: human, plasma, po, 100 mg
Recorded metric: Vd/F (L)
Numbers only, in L.

Req: Given the compound CCCN[C@@H]1CCc2nc(N)sc2C1 [(R)-pramipexole] , what is its reported Vd/F?
Resp: 373

====

Assay: clinical
Conditions: human, plasma, oral, 100 mg
Recorded metric: Cmax (ng/mL)
Numbers only, in ng/mL.

Req: Given the compound CCCN[C@@H]1CCc2nc(N)sc2C1 [(R)-pramipexole] , what is its reported Cmax?
Resp: 306

====

Test: in vivo
Conditions: both, rat, in vivo
Recorded metric: NOAEL at 3 months (mg/kg)
Answers are plain numbers, in mg/kg.

Req: Given the molecule CCCN[C@@H]1CCc2nc(N)sc2C1 [(R)-pramipexole] , what is its reported NOAEL at 3 months?
Resp: 100

====

Test: clinical
Settings: human, plasma, po, 150 mg
Protocol: Safety observations included vital signs, physical examination, clinical laboratory tests, ECGs, and adverse event reporting. Blood and urine samples were collected pre-dose and for 72 hours post-dose to assess the pharmacokinetics.
Recorded metric: Cmax (ng/mL)
One number for each entry, in ng/mL.

Req: Given the compound CCCN[C@@H]1CCc2nc(N)sc2C1 [(R)-pramipexole] , what is its reported Cmax?
Resp: 360

====

Assay: clinical
Settings: human, plasma, po, 50 mg
Recorded metric: Vd/F

Req: Given the compound CCCN[C@@H]1CCc2nc(N)sc2C1 [(R)-pramipexole] , what is its reported Vd/F?
Resp: 306 L

====

Experiment: clinical
Conditions: human, plasma, po, 300 mg, AUC(0-t) (mean ± SD), single 300 mg oral dose, fasted
Recorded metric: AUC(0-t) (µg·h/mL)
Numbers only, in µg·h/mL.

Req: Given the compound CCCN[C@@H]1CCc2nc(N)sc2C1 [(R)-pramipexole] , what is its reported AUC(0-t)?
Resp: 8.34

====

Assay: clinical
Settings: human, plasma, po, 50 mg, mean exposure (AUC0-∞), single oral 50 mg, fasted
Recorded metric: AUC(0-inf) (µg·h/mL)
One number for each entry, in µg·h/mL.

Req: Given the molecule CCCN[C@@H]1CCc2nc(N)sc2C1 [(R)-pramipexole] , what is its reported AUC(0-inf)?
Resp: 1.25

====

Assay: clinical
Details: human, plasma and urine, po, 300 mg
Recorded metric: CL renal (mL/min)
Numbers only, in mL/min.

Req: Given the molecule CCCN[C@@H]1CCc2nc(N)sc2C1 [(R)-pramipexole] , what is its reported CL renal?
Resp: 441
